// provenance: patent US20180186742A1

Please respond with reported pest or weed control at 100 ppm for every item in the list.
test system: Zymoseptoria tritici; assay: Leaf blotch of wheat (SEPTTR), disease control on wheat seedlings; type: in vivo; conditions: 24 h, high volume application at 100 ppm, 1 Day Protectant, read-out: SEPTTR disease control, 1DP, HV activity

1. COc1ccnc(C(=O)N[C@@H](C)C(=O)O[C@@H](C)[C@H](c2ccc(C)cc2F)C(C)C)c1O | < 80%
2. COc1ccnc(C(=O)N[C@@H](C)C(=O)O[C@@H](C)[C@@H](c2ccc(F)cc2C)C2CCC2)c1O | < 80%
3. COc1ccnc(C(=O)N[C@@H](C)C(=O)O[C@@H](C)[C@@H](c2ccc(C)cc2C)C(C)C)c1O | < 80%

For each of the items listed, what is its pest or weed control at 100 ppm?
1. COc1cc[n+]([O-])c(C(=O)N[C@@H](C)C(=O)O[C@@H](C)[C@@H](c2ccc(C)cc2C)C(C)C)c1O
2. COc1ccnc(C(=O)N[C@@H](C)C(=O)O[C@@H](C)[C@@H](c2ccc(C)cc2C)C2CCCCC2)c1O
3. COc1cc(F)ccc1[C@@H](C1CCCCC1)[C@H](C)OC(=O)[C@H](C)NC(=O)c1nccc(OC)c1O
4. COc1ccnc(C(=O)N[C@@H](C)C(=O)O[C@@H](C)[C@H](c2ccc(OC(F)(F)F)cc2)C(C)C)c1O
5. COc1ccnc(C(=O)N[C@@H](C)C(=O)O[C@@H](C)[C@@H](c2ccccc2)C(C)C)c1O
6. COc1ccnc(C(=O)N[C@@H](C)C(=O)O[C@@H](C)[C@H](c2c(F)cccc2Cl)C(C)C)c1O
7. COc1cc(F)ccc1[C@H](C(C)C)[C@H](C)OC(=O)[C@H](C)NC(=O)c1nccc(OC)c1O
8. COc1ccnc(C(=O)N[C@@H](C)C(=O)O[C@@H](C)[C@@H](c2ccc(C)cc2C)C2CCCC2)c1O

## Output
1: < 80%; 2: > 80%; 3: > 80%; 4: > 80%; 5: < 80%; 6: > 80%; 7: < 0%; 8: > 80%
